Each record here notes measured s/n ratio.
target: T1, proprotein convertase subtilisin/kexin type 9 (PCSK9) (human, UniProt Q8NBP7 31-692); test: phage spot ELISA;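 further: phage clones bound to PCSK9 or PCSK9Δhelix by ELISA, noise being the same phage on NeutrAvidin, positive when signal above 0.4 and signal:noise above 2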
T1 construct: His-tagged full-length PCSK9 in TR-FRET and SPR, biotinylated in phage ELISA; secreted protein is autoprocessed (prodomain plus catalytic/CRD chain starting at S153); also called rec.PCSK9; His-PCSK9
T1 sequence (Q8NBP7 other isoform, or with tags, fused parts or gaps limits assumed): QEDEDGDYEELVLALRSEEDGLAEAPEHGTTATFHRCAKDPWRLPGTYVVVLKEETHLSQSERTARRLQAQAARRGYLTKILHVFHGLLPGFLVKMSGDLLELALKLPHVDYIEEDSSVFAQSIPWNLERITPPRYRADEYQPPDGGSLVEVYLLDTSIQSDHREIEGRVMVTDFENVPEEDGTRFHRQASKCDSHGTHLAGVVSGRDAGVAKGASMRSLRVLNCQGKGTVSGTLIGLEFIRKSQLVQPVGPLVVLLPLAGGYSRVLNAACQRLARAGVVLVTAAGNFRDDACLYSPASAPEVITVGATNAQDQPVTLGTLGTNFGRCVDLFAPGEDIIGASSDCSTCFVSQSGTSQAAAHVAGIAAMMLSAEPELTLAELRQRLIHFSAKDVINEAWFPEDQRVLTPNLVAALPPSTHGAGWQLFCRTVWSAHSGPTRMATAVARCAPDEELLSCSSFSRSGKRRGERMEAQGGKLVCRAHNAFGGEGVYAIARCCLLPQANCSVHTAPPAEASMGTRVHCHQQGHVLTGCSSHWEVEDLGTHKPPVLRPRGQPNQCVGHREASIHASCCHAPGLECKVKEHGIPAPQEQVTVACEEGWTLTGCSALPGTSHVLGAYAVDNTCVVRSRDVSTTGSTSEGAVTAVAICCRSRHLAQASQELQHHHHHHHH
A bare number is all that is needed in reply.

Worked examples, 5 binders total:
BINDER	VALUE TYPE	MEASURED
TAFTSWEEYLDWVGSGGCVKYRGSVSCQESKT [SEQ ID NO 323]	s/n ratio	18
TAFTSWEEYLDWVGSGVPWNLAKI [SEQ ID NO 315]	s/n ratio	22.4
TAFTSWEEYLDWVGSGGHPLWNLSRI [SEQ ID NO 316]	s/n ratio	25.7
TAFTSWEEYLDWVGSGNVRCYRDVPSCS [SEQ ID NO 329]	s/n ratio	25.9
TAFTSWEEYLDWVGSGGPWNLNRV [SEQ ID NO 309]	s/n ratio	27.6

[in] Need s/n ratio of TAFTSWEEYLDWVGSGNPTYWLTRIS [SEQ ID NO 331] , thanks.
[out] 23.1

[in] Next record, please: TVFTSWEEYLDWV (also called phage displaying Pep2-8) [phage-displayed Pep2-8 (on p8)]
[out] 30

These measurements were taken from patent US20200283478A1.
